- Test system: NCI-H23 lung
- Test: NCI-60 one-dose screen, 48 h
- Condition info: 10 µM unless noted
- Procedure: Growth inhibition of the NCI-H23 human Non-Small Cell Lung tumor cell line is measured as a screen for anti-cancer activity. Cells are grown in 96 well plates and exposed to the test compound for 48 hours. Compounds are tested at a single concentration, which is 10^-5 M for most compounds. The reported endpoint is percent growth (GI% or GIPRCNT), where numbers from 0 - 100% represent growth inhibition, and numbers from -100% - 0 represent cell death. […]
About 83,000 compounds went through this panel and 20% of them were active in at least one assay; those are over-represented in the sample as a whole. Active and inactive are the calls of the source. How the source made its calls: active means growth percent below 10; inactive means the rest.
Hello, when you answer, please use one of the following outcomes: active, inactive

Examples with answers:
{"Compound": "CCC(CO)NC1CCCCC1 (stereo not given)", "Qualitative label": "inactive"}
{"Compound": "O=S(=O)(Cl)c1ccccc1 (tested in a mixture with another compound)", "Qualitative label": "inactive"}
{"Compound": "OB([O][Hg][c]1ccccc1)[O][Hg][c]1ccccc1", "Qualitative label": "active"}
{"Compound": "N#[N+]c1nc2nc(N)[nH]c(=O)c2[nH]1", "Qualitative label": "inactive"}
{"Compound": "C[C@]12C[C@H](O)[C@H]3[C@@H](CCC4=CC(=O)CC[C@@]43C)[C@@H]1CC[C@@H]2O", "Qualitative label": "inactive"}
{"Compound": "O=c1[nH]c2cc(Cl)ccc2n1C1CCN(CCCC(c2ccc(F)cc2)c2ccc(F)cc2)CC1", "Qualitative label": "inactive"}
{"Compound": "C[C@@H]1CC[C@@H]2[C@@H]1[C@H](OC(=O)/C=C/C1CCCCC1)[C@]1(C3CCCCC3)C[C@@H](OC(=O)CO)[C@@]2(C)O1", "Qualitative label": "inactive"}
{"Compound": "O=[N+]([O-])c1cccc([As]=[As]c2cccc([N+](=O)[O-])c2)c1 (stereo not given)", "Qualitative label": "active"}
{"Compound": "Nc1c(Br)cc([N+](=O)[O-])cc1[N+](=O)[O-]", "Qualitative label": "inactive"}

Next up:
Call for entry "Cc1ccc(C[As+](c2ccccc2)(c2ccccc2)c2ccccc2)cc1" : active

----------
- System: HL-60(TB) leukemia
- Test: NCI-60 one-dose screen, 48 h (100 = growth as untreated, 0 = no growth, -100 = all killed)
- Condition info: 10 µM unless noted
The panel holds about 83,000 compounds, 20% with a hit somewhere; the sample as a whole holds those more often.
Rule for this label: TRUE means growth is less than 80%; FALSE means growth is at least 80%.

{"Compound": "Cc1cc(NS(=O)(=O)c2ccccc2)c(OS(=O)(=O)c2ccccc2)cc1C", "Qualitative label": "FALSE"}
{"Compound": "N#Cc1c(N)nc(NCCO)nc1-c1ccc(F)cc1", "Qualitative label": "FALSE"}
{"Compound": "CC(=O)c1cc2c(N)c(C(=O)Nc3cccc(Cl)c3)sc2nc1C", "Qualitative label": "TRUE"}
{"Compound": "O=C(Nc1cccc(Cl)c1)Nc1cc2ncncc2cc1OCc1cccc(F)c1", "Qualitative label": "TRUE"}
{"Compound": "Cn1c(COC(=O)NCCn2ccnc2)nc2c(N3CCOCC3)nc(-c3ccccc3)nc21", "Qualitative label": "TRUE"}

# check: growth < 80% for CC([C@H]1CCC2C3CCC4C(=O)C(NC=O)=CC[C@]4(C)C3CC[C@@]21C)N(C)C (stereo partly drawn) TRUE

Note, next up: CCOCC(=O)C(C#N)c1ccc(Cl)c(Cl)c1 (stereo not drawn) FALSE

Try this compound too: "N#Cc1c(-c2cccc(F)c2)cc(-c2cccnc2)[nH]c1=O" FALSE

Do the same for "N=C(N)SCc1c2ccccc2c(CSC(=N)N)c2ccccc12" please TRUE

Note, next up: "COc1ccc(-c2cc(C(=O)Nc3ccc(Br)cc3)nc3[nH]c(=O)sc23)cc1" TRUE
